System: Septoria tritici
Assay: Test A: wheat leaf blotch, preventive spray on wheat seedlings
Assay type: in vivo
Settings: 50 ppm, 100 = 100% disease control, 0 = no control
# maps each entry to its Test A disease control rating
readout_name: Test A disease control rating (%)

compound | observed_measurement
Cc1nn(C)c(Nc2ccc(Cl)cc2[N+](=O)[O-])c1-c1ccc(F)cc1F [compound 78] | 100
Cc1nn(C)c(Nc2ccc(Br)cc2[N+](=O)[O-])c1-c1ccc(F)cc1Cl [compound 91] | 99
Cc1nn(C)c(Nc2c(F)cccc2[N+](=O)[O-])c1-c1c(F)cc(F)cc1F [compound 62] | 100
Cc1nn(C)c(Nc2ccccc2[N+](=O)[O-])c1-c1ccc(Cl)cc1Cl [compound 189] | 99
COc1ccc(Nc2c(-c3ccc(F)cc3Br)c(C)nn2C)c([N+](=O)[O-])c1 [compound 52] | 100
CCc1nn(C)c(Nc2c(F)cc(F)cc2[N+](=O)[O-])c1-c1ccc(F)cc1F [compound 50] | 100
Cc1cc(F)c(Nc2c(-c3c(F)cc(F)cc3Cl)c(C)nn2C)c([N+](=O)[O-])c1 [compound 193] | 100
Cc1cc(Cl)c(Nc2c(-c3c(F)cccc3F)c(C)nn2C)c([N+](=O)[O-])c1 [compound 100] | 100
CCc1nn(C)c(Nc2ccc(OC)cc2[N+](=O)[O-])c1-c1ccc(F)cc1F [compound 45] | 100
Cc1nn(C)c(Nc2ccc(Cl)cc2[N+](=O)[O-])c1-c1c(F)cccc1Cl [compound 22] | 100
COc1cc(Cl)c(Nc2c(-c3ccc(F)cc3F)c(C)nn2C)c([N+](=O)[O-])c1 [compound 141] | 99
Cc1nn(C)c(Nc2c(F)cc(F)cc2[N+](=O)[O-])c1-c1c(F)cc(F)cc1Cl [compound 199] | 99
CCc1nn(C)c(Nc2ccc(C)cc2[N+](=O)[O-])c1-c1ccc(F)cc1F [compound 175] | 100
Cc1nn(C)c(Nc2c(Cl)cccc2[N+](=O)[O-])c1-c1ccc(F)cc1F [compound 79] | 100
COc1ccc(-c2c(C)nn(C)c2Nc2c(F)cc(Br)cc2[N+](=O)[O-])c(Cl)c1 [compound 182] | 100
Cc1cccc([N+](=O)[O-])c1Nc1c(-c2ccc(C#N)cc2Cl)c(C)nn1C [compound 157] | 100
Cc1ccc(Nc2c(-c3c(F)cccc3F)c(C)nn2C)c([N+](=O)[O-])c1 [compound 105] | 99
COc1cc(F)c(Nc2c(-c3ccc(F)cc3Cl)c(C)nn2C)c([N+](=O)[O-])c1 [compound 85] | 100
Cc1nn(C)c(Nc2c(Cl)cccc2[N+](=O)[O-])c1-c1c(F)cc(F)cc1F [compound 158] | 99
Cc1cc(Cl)c(Nc2c(-c3ccc(F)cc3Br)c(C)nn2C)c([N+](=O)[O-])c1 [compound 181] | 100
COc1cc(F)c(-c2c(C)nn(C)c2Nc2c(C)cccc2[N+](=O)[O-])c(F)c1 [compound 162] | 100
Cc1nn(C)c(Nc2ccc(Cl)cc2[N+](=O)[O-])c1-c1ccc(F)cc1Cl [compound 92] | 100
CCc1nn(C)c(Nc2c(F)cccc2[N+](=O)[O-])c1-c1c(F)cc(Cl)cc1F [compound 170] | 100
Cc1cc(F)c(Nc2c(-c3c(F)cc(F)cc3F)c(C)nn2C)c([N+](=O)[O-])c1 [compound 194] | 100
Cc1ccc(Nc2c(-c3ccc(C#N)cc3Cl)c(C)nn2C)c([N+](=O)[O-])c1 [compound 14] | 100
COc1cc(F)c(Nc2c(-c3ccc(F)cc3Br)c(C)nn2C)c([N+](=O)[O-])c1 [compound 165] | 99
Cc1nn(C)c(Nc2c(F)cccc2[N+](=O)[O-])c1-c1ccc(Cl)cc1F [compound 12] | 100
Cc1nn(C)c(Nc2c(Cl)cc(Cl)cc2[N+](=O)[O-])c1-c1ccc(F)cc1Br [compound 37] | 100
CCc1nn(C)c(Nc2c(F)cc(F)cc2[N+](=O)[O-])c1-c1ccc(F)cc1Cl [compound 95] | 100
